- System: MS2 coat protein
- test.summary: apparent Kd, MS2 coat protein; higher = weaker binding; RNA-MaP array
- test.settings: ligand present: theophylline; designed as: OFF switch for theophylline
readout.kind: apparent Kd
Kindly write the number and append the unit.

Completed entries (count: 2):
[ask] Consider the sequence CAUCCACCUGAAGCCUCCCAAUUCCUCGAUACCAGAGGAUUAAGACUCCCUUGGCAGCGAGCUACAUGAGGAUCACCCAUGUGCC . State its measured apparent Kd.
[reply] 23.9 nM

[ask] Consider the sequence AUACGGCGGUAAAAUCAGAGAGUAAAAGAUACCAGCAAUAAUAAAUGCCCUUGGCAGCUUCUGACAUGAGGAUCACCCAUGUAAA . State its measured apparent Kd.
[reply] 29.1 nM

***
[ask] Consider the sequence CGGGAACGAUAUGAUACCAGCCUGCGAAAGAAUGCUUAGUACAUGAGGAUCACCCAUGUAGGCCCUUGGCAGCAUCGACUCAAGU . State its measured apparent Kd.
[reply] 19.7 nM

[ask] Consider the sequence UAAUUCACUAUUCACGGUCCGAUGUUCGAUACCAGAUCAUUUCGAAUCCCUUGGCAGCGAUUAACAUGAGGAUCACCCAUGUAAC . State its measured apparent Kd.
[reply] 83.9 nM

[ask] Consider the sequence CAUCGGGCGGUAAAUGGCGGGUACGGUGAUACCAGUUUUUGAUUUAACCCUUGGCAGCACUAUACAUGAGGAUCACCCAUGUAAU . State its measured apparent Kd.
[reply] 30 nM

// provenance: the EternaBench riboswitch data
